- Test system: phospho-ERK in SW620 (KRAS-G12V) cells
- Assay Explanation: pERK In Cell Western (ICW) assay (Method B), SW620
- Format: cell-based
- Conditions: Homo sapiens, SW-620, 3 h, Table 4
pIC50: −log10 of the molar value.
Assay Endpoint: pIC50

> print(dat)
                                   compound                           target.system  result.value
1  N#CCC1(O)CCCN(c2nc(OCC3(CN4CCOCC4)CC3)nc(N3CC4(CCc5sc(N)c(C#N)c54)C3)n2)C1 (stereo not shown)  phospho-ERK in SW620 (KRAS-G12V) cells  4.70 to 6.00

Give pIC50 for each of the items listed below.
1. CC(c1cccnc1N)N(CCC#N)c1nc(OC[C@@]23CCCN2C[C@H](F)C3)nc(N2CC3(CCc4sc(N)c(C#N)c43)C2)n1 (stereo partly shown)
2. CC(c1nsnc1N)N(C)c1nc(OC[C@@]23CCCN2C[C@H](F)C3)nc(N2CC3(C2)SCc2sc(N)c(C#N)c23)n1 (stereo partly shown) [Compound 174]
3. N#Cc1c(N)sc2c1C1(CC2)CN(c2nc(OCC3(CN4CCOCC4)CC3)nc(N3CCCCC(C#N)C3)n2)C1 (stereo not shown)
4. N#Cc1c(N)sc2c1C1(CC2)CN(c2nc(OC[C@@]34CCCN3C[C@H](F)C4)nc(N(CCO)Cc3cccnc3N)n2)C1
5. CCN(c1nc(OC[C@@]23CCCN2C[C@H](F)C3)nc(N2CC3(C2)SCc2sc(N)c(C#N)c23)n1)[C@@H](C)c1cccnc1N [Compound 139B]
6. CC(c1cncnc1N)N(C)c1nc(OC[C@@]23CCCN2C[C@H](F)C3)nc(N2CC3(CCc4sc(N)c(C#N)c43)C2)n1 (stereo partly shown)

> 8.00
> 8.00
4.70 to 6.00
7.00 to 8.00
7.00 to 8.00
7.00 to 8.00

Give pIC50 for each of the items listed below.
1. N#CCN(Cc1c[nH]nn1)c1nc(OC[C@@]23CCCN2C[C@H](F)C3)nc(N2CC3(C2)SCc2sc(N)c(C#N)c23)n1
2. N#Cc1c(N)sc2c1C1(CC2)CN(c2nc(OCC3(C#N)CC3)nc(OCC3(CN4CCOCC4)CC3)n2)C1
3. N#Cc1c(N)sc2c1C1(CN(c3nc(OC[C@@]45CCCN4C[C@H](F)C5)nc(N4CC(O)NC(=O)C45CC5)n3)C1)SC2 (stereo partly shown)
4. CC(c1nccnc1N)N(CCO)c1nc(OC[C@@]23CCCN2C[C@H](F)C3)nc(N2CC3(CCc4sc(N)c(C#N)c43)C2)n1 (stereo partly shown)
5. C[C@H](c1cccnc1N)N(CC(F)F)c1nc(OC[C@@]23CCCN2C[C@H](F)C3)nc(N2CC3(C2)SCc2sc(N)c(C#N)c23)n1

1: 4.70 to 6.00; 2: 6.00 to 7.00; 3: 4.70 to 6.00; 4: 7.00 to 8.00; 5: > 8.00

Give pIC50 for each of the items listed below.
1. C[C@@]1(O)CCCN(c2nc(OCC3(CN4CCOCC4)CC3)nc(N3CC4(C3)c3c(sc(N)c3C#N)C[C@@H]4F)n2)C1
2. N#CCC1(O)CCCN(c2nc(OC[C@@]34CCCN3C[C@H](F)C4)nc(N3CC4(CCc5sc(N)c(C#N)c54)C3)n2)C1 (stereo partly shown)
3. CC(c1ccn[nH]1)N(C)c1nc(OC[C@@]23CCCN2C[C@H](F)C3)nc(N2CC3(CCc4sc(N)c(C#N)c43)C2)n1 (stereo partly shown)

1. 6.00 to 7.00
2. 4.70 to 6.00
3. 4.70 to 6.00

Give pIC50 for each of the items listed below.
1. N#CCC12CC1CCN(c1nc(OC[C@@]34CCCN3C[C@H](F)C4)nc(N3CC4(CCc5sc(N)c(C#N)c54)C3)n1)C2 (stereo partly shown)
2. CCN(c1nc(OC[C@]2(CO)CCCN2C)nc(N2CC3(C2)SCc2sc(N)c(C#N)c23)n1)[C@H](C)c1cccnc1N
3. C#CCN(c1nc(OC[C@@]23CCCN2C[C@H](F)C3)nc(N2CC3(C2)SCc2sc(N)c(C#N)c23)n1)C1(C#N)CC1
4. C[C@H](c1cccnc1N)N(CC#N)c1nc(OC[C@@]23CCCN2C[C@H](F)C3)nc(N2CC3(C2)SCc2sc(N)c(C#N)c23)n1
5. C[C@H](c1cccnc1N)N(C)c1nc(OC[C@@]23CCCN2C[C@H](F)C3)nc(N2CCC(c3c(Cl)sc(N)c3C#N)C2)n1 (stereo partly shown)

1: 4.70 to 6.00; 2: 7.00 to 8.00; 3: 6.00 to 7.00; 4: > 8.00; 5: 7.00 to 8.00

Give pIC50 for each of the items listed below.
1. N#Cc1c(N)sc2c1C1(CC2)CN(c2nc(OC[C@@]34CCCN3C[C@H](F)C4)nc(N3CCCC4(C3)NC(=O)NC4=O)n2)C1 (stereo partly shown)
2. C#CC(C)N(CC#N)c1nc(OC[C@@]23CCCN2C[C@H](F)C3)nc(N2CC3(C2)SCc2sc(N)c(C#N)c23)n1 (stereo partly shown)
3. N#Cc1c(N)sc2c1C1(CC2)CN(c2nc(OC[C@@]34CCCN3C[C@H](F)C4)nc(N3CCCC(C#N)C3)n2)C1 (stereo partly shown)
4. C[C@@]1(O)C[C@H](F)CN(c2nc(OC[C@@]34CCCN3C[C@H](F)C4)nc(N3CC4(C3)SCc3sc(N)c(C#N)c34)n2)C1
5. N#Cc1c(N)sc2c1C1(CC2)CN(c2nc(OCC3(CN4CCOCC4)CC3)nc(N3CCCC4(C3)NC(=O)NC4=O)n2)C1 (stereo not shown)

1. 4.70 to 6.00
2. 6.00 to 7.00
3. 6.00 to 7.00
4. 7.00 to 8.00
5. 4.70 to 6.00
